Reference for the values: PubChem BioAssay (NCI)

System: SW-620 colon
Below, each of the molecules is paired with its reported GI50 value.
attribute measured: GI50

1) O=c1[nH]c2ccccc2n1-c1n[nH]c2ccccc12; 39.4 µM
2) CC1(C)OC2C(COS(N)(=O)=O)SC(n3cnc4cncnc43)C2O1 (configuration not stated); > 100 µM
3) CSC1=NCC2(S1)c1ccccc1N(C(=O)OC(C)(C)C)C2N1CCCCC1 (configuration not stated); > 100 µM
4) Cc1cc(Cl)ccc1NS(=O)(=O)c1ccc(-c2cnc(C3CC3)o2)cc1; 0.198 µM
5) Nc1ccc(S(=O)(=O)Nc2cnc3c(Cl)cccc3n2)cc1; 52.3 µM
6) Cc1cc(Cl)ccc1Nc1nc(C(F)(F)F)ccc1C(=O)N1CCN(c2cccc(Cl)c2)CC1; > 100 µM
7) Cc1ccc(C(C)C)cc1NC(=O)Nc1ccc([N+](=O)[O-])cc1; 2.89 µM
